# ASSAY_REMARKS: self-splicing fitness, log relative to wild type (ln ratio); higher = more splicing; Tetrahymena group I intron in knt gene, E. coli kanamycin selection, DiMSum; sequences stand for … in CUCUCU…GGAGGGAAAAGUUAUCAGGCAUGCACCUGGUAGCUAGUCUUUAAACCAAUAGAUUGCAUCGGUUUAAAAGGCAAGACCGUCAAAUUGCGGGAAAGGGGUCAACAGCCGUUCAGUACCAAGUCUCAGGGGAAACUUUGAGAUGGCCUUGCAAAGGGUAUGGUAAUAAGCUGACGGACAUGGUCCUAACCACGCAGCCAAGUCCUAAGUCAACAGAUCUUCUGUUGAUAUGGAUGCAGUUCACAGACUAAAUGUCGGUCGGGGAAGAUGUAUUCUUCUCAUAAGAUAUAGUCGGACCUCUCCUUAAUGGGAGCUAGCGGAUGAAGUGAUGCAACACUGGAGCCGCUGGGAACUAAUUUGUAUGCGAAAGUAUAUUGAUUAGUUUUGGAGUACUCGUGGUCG;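 further: selection with 25 µg/mL kanamycin versus none on LB agar overnight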
# TEST_PARAMETERS: 30 °C
Classify as follows. Reported self-splicing fitness (ln) greater than or equal to -2: YES. Reported self-splicing fitness (ln) below: NO.

Some solved entries appear below for comparison.
Prompt: Form field: self-splicing fitness (ln) at least -2? Entry: ACGUAGCAAUAUUACGACCU
Completion: YES

Prompt: Form field: self-splicing fitness (ln) at least -2? Entry: AACAAGCAAUAUUACGUGCG
Completion: YES

***
Prompt: Form field: self-splicing fitness (ln) at least -2? Entry: GUAAAGCAAUAUUACGUUCG
Completion: YES

Prompt: Form field: self-splicing fitness (ln) at least -2? Entry: GCGCAGCAAUAUUACGUGGU
Completion: NO

----------
Measured self-splicing fitness (ln) by item
# ASSAY_REMARKS: self-splicing fitness, log relative to wild type (ln ratio); higher = more splicing; Tetrahymena group I intron in knt gene, E. coli kanamycin selection, DiMSum; sequences stand for … in CUCUCU…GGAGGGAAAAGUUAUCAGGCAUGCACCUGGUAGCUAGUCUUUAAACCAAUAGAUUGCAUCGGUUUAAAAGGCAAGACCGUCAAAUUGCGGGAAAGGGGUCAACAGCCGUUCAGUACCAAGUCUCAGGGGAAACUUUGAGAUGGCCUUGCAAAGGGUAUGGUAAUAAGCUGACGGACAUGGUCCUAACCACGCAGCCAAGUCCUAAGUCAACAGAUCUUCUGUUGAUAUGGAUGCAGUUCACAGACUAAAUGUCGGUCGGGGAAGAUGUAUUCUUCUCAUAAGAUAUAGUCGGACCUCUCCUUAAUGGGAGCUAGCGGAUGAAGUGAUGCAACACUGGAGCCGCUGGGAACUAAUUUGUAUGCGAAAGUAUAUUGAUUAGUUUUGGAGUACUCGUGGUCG
# TEST_PARAMETERS: 30 °C

# example entries with known answers
Prompt: Return self-splicing fitness (ln) for the following sequence: UUGAAGCAAUAUUACGGGAU
Completion: -2.63

Prompt: Return self-splicing fitness (ln) for the following sequence: AUCCAGCAAUAUUACGGUGU
Completion: -1.07

Prompt: Return self-splicing fitness (ln) for the following sequence: AAUCAGCAAUAUUACGAGUA
Completion: -1.43

Prompt: Return self-splicing fitness (ln) for the following sequence: GCUAAGCAAUAUUACGCGCU
Completion: -2.47

Prompt: Return self-splicing fitness (ln) for the following sequence: AUUCAGCAAUAUUACGGCCA
Completion: -0.32

Prompt: Return self-splicing fitness (ln) for the following sequence: CAAGAGCAAUAUUACGCAUC
Completion: -3.5

Prompt: Return self-splicing fitness (ln) for the following sequence: AAUUAGCAAUAUUACGAUGA
Completion: -0.632

Prompt: Return self-splicing fitness (ln) for the following sequence: UUAGAGCAAUAUUACGGCAU
Completion: -2.51

Prompt: Return self-splicing fitness (ln) for the following sequence: UGGAAGCAAUAUUACGUCGU
Completion: -2.12

Prompt: Return self-splicing fitness (ln) for the following sequence: CAGCAGCAAUAUUACGUAGC
Completion: -4.02

***
Prompt: Return self-splicing fitness (ln) for the following sequence: CGUUAGCAAUAUUACGGUGG
Completion: -0.853

Prompt: Return self-splicing fitness (ln) for the following sequence: CAGUAGCAAUAUUACGUAUG
Completion: -2.06

----------
# ASSAY_REMARKS: self-splicing fitness, log relative to wild type (ln ratio); higher = more splicing; Tetrahymena group I intron in knt gene, E. coli kanamycin selection, DiMSum; sequences stand for … in CUCUCU…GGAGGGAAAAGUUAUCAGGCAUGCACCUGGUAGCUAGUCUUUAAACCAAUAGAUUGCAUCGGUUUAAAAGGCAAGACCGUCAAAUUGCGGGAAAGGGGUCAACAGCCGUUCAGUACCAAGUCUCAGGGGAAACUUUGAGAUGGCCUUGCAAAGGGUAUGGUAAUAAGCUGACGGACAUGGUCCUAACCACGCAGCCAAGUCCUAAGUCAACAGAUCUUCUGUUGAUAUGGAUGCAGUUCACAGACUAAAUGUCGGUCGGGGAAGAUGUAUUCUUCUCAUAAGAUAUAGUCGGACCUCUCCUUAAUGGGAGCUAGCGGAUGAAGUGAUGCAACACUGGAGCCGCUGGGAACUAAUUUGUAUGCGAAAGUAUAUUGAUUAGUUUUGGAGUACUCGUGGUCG
# TEST_PARAMETERS: 37 °C
Classify as follows. Reported self-splicing fitness (ln) greater than or equal to -0.9: Yes. Reported self-splicing fitness (ln) below: No.

Prompt: Form field: self-splicing fitness (ln) at least -0.9? Entry: AACUAGCAAUAUUACGUCAA
Completion: No

Prompt: Form field: self-splicing fitness (ln) at least -0.9? Entry: UACAAGCAAUAUUACGGAGC
Completion: No

Prompt: Form field: self-splicing fitness (ln) at least -0.9? Entry: CAUAAGCAAUAUUACGGACA
Completion: No

Prompt: Form field: self-splicing fitness (ln) at least -0.9? Entry: UGUAAGCAAUAUUACGGCAG
Completion: Yes

Prompt: Form field: self-splicing fitness (ln) at least -0.9? Entry: ACAAAGCAAUAUUACGCACC
Completion: Yes

***
Prompt: Form field: self-splicing fitness (ln) at least -0.9? Entry: CGACAGCAAUAUUACGCUCC
Completion: Yes

Prompt: Form field: self-splicing fitness (ln) at least -0.9? Entry: UGAAAGCAAUAUUACGUGUU
Completion: No

Prompt: Form field: self-splicing fitness (ln) at least -0.9? Entry: AUUCAGCAAUAUUACGUUGG
Completion: No

Prompt: Form field: self-splicing fitness (ln) at least -0.9? Entry: UGCGAGCAAUAUUACGUGUG
Completion: No

Prompt: Form field: self-splicing fitness (ln) at least -0.9? Entry: CGGAAGCAAUAUUACGUCAG
Completion: Yes

Prompt: Form field: self-splicing fitness (ln) at least -0.9? Entry: CAGAAGCAAUAUUACGGGAU
Completion: No

Prompt: Form field: self-splicing fitness (ln) at least -0.9? Entry: GCUCAGCAAUAUUACGAGGA
Completion: Yes

Prompt: Form field: self-splicing fitness (ln) at least -0.9? Entry: AAUAAGCAAUAUUACGCAGC
Completion: No

Prompt: Form field: self-splicing fitness (ln) at least -0.9? Entry: GUCUAGCAAUAUUACGUGUG
Completion: Yes

Prompt: Form field: self-splicing fitness (ln) at least -0.9? Entry: CCUUAGCAAUAUUACGUCUA
Completion: No

Prompt: Form field: self-splicing fitness (ln) at least -0.9? Entry: AUGAAGCAAUAUUACGAUCA
Completion: Yes

Prompt: Form field: self-splicing fitness (ln) at least -0.9? Entry: CAGCAGCAAUAUUACGACCA
Completion: No

Prompt: Form field: self-splicing fitness (ln) at least -0.9? Entry: AAUGAGCAAUAUUACGCCAU
Completion: No

Prompt: Form field: self-splicing fitness (ln) at least -0.9? Entry: UAUAAGCAAUAUUACGGAGC
Completion: No

Prompt: Form field: self-splicing fitness (ln) at least -0.9? Entry: AAAGAGCAAUAUUACGCUGU
Completion: No

Prompt: Form field: self-splicing fitness (ln) at least -0.9? Entry: ACCAAGCAAUAUUACGCAAA
Completion: No

----------
# ASSAY_REMARKS: self-splicing fitness, log relative to wild type (ln ratio); higher = more splicing; Tetrahymena group I intron in knt gene, E. coli kanamycin selection, DiMSum; sequences stand for … in CUCUCU…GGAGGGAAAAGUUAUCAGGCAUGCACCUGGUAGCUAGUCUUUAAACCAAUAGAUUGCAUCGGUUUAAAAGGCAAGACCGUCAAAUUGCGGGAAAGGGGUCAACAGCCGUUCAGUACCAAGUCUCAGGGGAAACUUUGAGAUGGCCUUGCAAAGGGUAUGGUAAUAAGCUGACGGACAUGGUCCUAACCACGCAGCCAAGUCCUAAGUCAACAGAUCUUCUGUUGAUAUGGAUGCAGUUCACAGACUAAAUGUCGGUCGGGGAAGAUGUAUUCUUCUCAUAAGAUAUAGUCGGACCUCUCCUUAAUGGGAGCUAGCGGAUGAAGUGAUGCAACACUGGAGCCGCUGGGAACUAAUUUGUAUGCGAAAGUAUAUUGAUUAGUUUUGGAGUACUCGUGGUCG
# TEST_PARAMETERS: 30 °C
Measured self-splicing fitness (ln) by item

# example entries with known answers
Prompt: Return self-splicing fitness (ln) for the following sequence: AUAAAGCAAUAUUACGACCC
Completion: 0.352

Prompt: Return self-splicing fitness (ln) for the following sequence: CAAUAGCAAUAUUACGCAUU
Completion: -4.62

Prompt: Return self-splicing fitness (ln) for the following sequence: UACCAGCAAUAUUACGUACU
Completion: -2.92

***
Prompt: Return self-splicing fitness (ln) for the following sequence: ACAUAGCAAUAUUACGGAAA
Completion: -2.14

Prompt: Return self-splicing fitness (ln) for the following sequence: CUCAAGCAAUAUUACGGCCG
Completion: -1.2

Prompt: Return self-splicing fitness (ln) for the following sequence: AUGGAGCAAUAUUACGAAUA
Completion: -2.15

Prompt: Return self-splicing fitness (ln) for the following sequence: GUUCAGCAAUAUUACGAAUC
Completion: -3.73

Prompt: Return self-splicing fitness (ln) for the following sequence: UGGCAGCAAUAUUACGCGAG
Completion: -1.96
